Reported GI50 values follow for various compounds
- Tested on: A549
- Experiment Summary: NCI tumour cell line growth inhibition, 48 h
Calls of active or inactive are those of the source. No stated cut-off is given here; in the data, active = GI50 up to about 1.1 µM and inactive = higher.

Use the examples below as a reference point.
O=C1c2cc([N+](=O)[O-])sc2C(=O)c2c([N+](=O)[O-])csc21; 1.9 µM (inactive)
CC1N(O)C(c2ccccc2)C(c2ccccc2)=[N+]1[O-] (stereo unspecified); > 100 µM (inactive)
C(CCCCc1nnc(N2CCCCC2)o1)CCCc1nnc(N2CCCCC2)o1; > 100 µM (inactive)
Cc1cc(O)nc(CNC(=O)c2ccc3ccccc3c2)n1; > 100 µM (inactive)
O=C(/C=C/c1ccc(Cl)c(Cl)c1)c1ccc2ccccc2c1; > 100 µM (inactive)

## Input Recorded GI50 for CC1(C(=O)Nc2ccc3cc4ccccc4cc3c2)CC2(C)CC(C)(C1)C(O)NC2=O (stereo unspecified) , please?
## Output 98.4 µM (inactive)

## Input Recorded GI50 for `N#Cc1c2ccc([N+](=O)[O-])cc2c(=O)n2c1sc1ccc(C(F)(F)F)cc12` , please?
## Output > 100 µM (inactive)

## Input Recorded GI50 for `CCOC(=O)C(=CN1CCNC1=S)C(=O)OCC` , please?
## Output > 100 µM (inactive)

## Input Recorded GI50 for CCCCCCCCC/C=C1\CCC(CN2CCOCC2)C1=O (stereo unspecified) , please?
## Output 15 µM (inactive)

## Input Recorded GI50 for `COc1ccc(-c2cc(=O)c3c(O)c(OC)c(O)cc3o2)cc1O` , please?
## Output 6.4 µM (inactive)

## Input Recorded GI50 for `CN1C(=O)[C@H](c2c[nH]c3ccccc23)[C@H](c2c[nH]c3ccccc23)C1=O` , please?
## Output 32.9 µM (inactive)

###

Reported GI50 values follow for various molecules
- Tested on: SR
- Experiment Summary: NCI tumour cell line growth inhibition, 48 h
The source made the active and inactive calls. Cut-off read from the data, not from the text of the source: active = GI50 up to about 1.1 µM and inactive = higher.

Cc1cn([C@@H]2O[C@H](CO)[C@@H](O)[C@@H]2O)c(=O)[nH]c1=O; > 1000 µM (inactive)
C#CCCOC1(OC)N=NC(C)(C)O1 (configuration not stated); > 100 µM (inactive)
CC1N(O)C(c2ccccc2)C(c2ccccc2)=[N+]1[O-] (configuration not stated); > 100 µM (inactive)
CCOC(=O)CCC(NC(=O)c1ccc(OCc2ccc3nc(OC)c(OC)nc3c2)cc1)C(=O)OCC (configuration not stated); 45.1 µM (inactive)
CN(CC(=O)O)c1ncc2c(n1)CCCC2; > 100 µM (inactive)
CN(C)/N=N/c1ccccc1; > 100 µM (inactive)

## Input Recorded GI50 for `Cc1cc(=O)oc2cc(OS(C)(=O)=O)ccc12` , please?
## Output > 100 µM (inactive)

## Input Recorded GI50 for OC(C1CO1)C(O)C1CO1 (configuration not stated) , please?
## Output 1.75 µM (inactive)

###

- System: NCI-H522
- Experiment Summary: NCI tumour cell line growth inhibition, 48 h
Activity calls are given as the source filed them. Rule as the data show it: active = GI50 up to about 1.1 µM and inactive = higher.
Give your call using only these classes: true for active, false for inactive

Below are worked cases with known answers.
CC(=N\N=C\c1ccccn1)/C(C)=N/N=C/c1ccccn1; false
CCOC(=O)CCC(NC(=O)c1ccc(OCc2ccc3nc(OC)c(OC)nc3c2)cc1)C(=O)OCC (centres undefined); false
CC1CCC2C(C)C3C(CC4C5CC=C6CC(OC7OC(CO)C(O)C(OC8OC(CO)C(O)C(O)C8O)C7OC7OC(C)C(O)C(O)C7O)CCC6(C)C5CCC43C)N2C1 (centres undefined); false
O=C(CC(=O)n1nc(-c2ccccc2)c(/N=N/c2ccc([N+](=O)[O-])cc2)c1-c1ccccc1)Nc1ccc(Cl)cc1; false
COC(=O)NCCc1n[nH]c2c1C(=O)C=C(OC)C2=O; false

## Input Which outcome was assigned to `CCO[C@@]1(COCc2ccccc2)OC(=O)C[C@@H]1N1C(=O)OC[C@@H]1c1ccccc1` in this test?
## Output false

## Input Which outcome was assigned to `N#Cc1ccccc1NC(=O)/C(=N\Nc1ccc([N+](=O)[O-])cc1)C1C(=O)NC(=O)NC1=O` in this test?
## Output false

## Input Which outcome was assigned to CC(C)(C)NCCC(O)c1cc(C(F)(F)F)nc2c(C(F)(F)F)cccc12 (centres undefined) in this test?
## Output false

## Input Which outcome was assigned to `CCCCCCN1CCc2c(C)c(C#N)c3nc4ccccc4n3c21` in this test?
## Output false

## Input Which outcome was assigned to CC1C(=O)N=C2C(=CN(Cc3ccccc3)c3ccccc32)C(=O)N1C (centres undefined) in this test?
## Output false

###

- Test system: SK-MEL-2
- Experiment Summary: NCI tumour cell line growth inhibition, 48 h
Calls of active or inactive are those of the source. Cut-off read from the data, not from the text of the source: active = GI50 up to about 1.1 µM and inactive = higher.
Reported Metric: GI50

Use the examples below as a reference point.
CCCNC(=S)N/C=C1\C(=O)Nc2ccccc2C1=O; > 100 µM (inactive)
CCOC(=O)C1CCn2c(nc3c2c(=O)n(C)c(=O)n3C)S1 (stereo not given); > 100 µM (inactive)

## Input Item: `Cc1nc(SCC(=O)Nc2ccc(Cl)cc2)c2sc(=S)n(-c3ccccc3)c2n1` Test system: SK-MEL-2 Read-out: GI50 Value: ?
## Output > 10 µM (inactive)

## Input Item: COc1cc(C2C(Cl)C(=O)N2c2ccc(Br)cc2)cc(I)c1O (stereo not given) Test system: SK-MEL-2 Read-out: GI50 Value: ?
## Output 65.8 µM (inactive)

## Input Item: COc1cccc(/C=C/C2=NN(c3cccc(S(=O)(=O)O)c3)C3(C2)SCC(=O)N3c2nc3ccccc3s2)c1 (stereo not given) Test system: SK-MEL-2 Read-out: GI50 Value: ?
## Output 44.8 µM (inactive)

## Input Item: `CC(=N\N=C\c1ccccn1)/C(C)=N/N=C/c1ccccn1` Test system: SK-MEL-2 Read-out: GI50 Value: ?
## Output > 100 µM (inactive)

###

- System: HOP-92
- Experiment Summary: NCI tumour cell line growth inhibition, 48 h
The source made the active and inactive calls. Cut-off read from the data, not from the text of the source: active = GI50 up to about 1.1 µM and inactive = higher.
Reported Metric: GI50

Use the examples below as a reference point.
COc1ccc(O)c(/C=N\Nc2ccccc2)c1; 14 µM (inactive)
CC(C)(Cl)C(Br)CC/C(=C/CBr)CBr.CC(C)(Cl)C(Br)CC/C(=C\CBr)CBr (stereo not given); 2.03 µM (inactive)
C=CCN1C(=O)/C(=C/c2ccccc2)NC1=S; > 100 µM (inactive)
CCOC(=O)C#Cc1ccc(C#CC(=O)OCC)cc1; 5.69 µM (inactive)
COc1ccc(/C=C2\CSC/C(=C\c3ccc(OC)c(OC)c3OC)C2=O)c(OC)c1OC; 35.6 µM (inactive)

## Input Recorded GI50 for COc1ccc2oc(C(=O)N3CC(CCl)c4ccc(N)cc43)cc2c1 (stereo not given) , please?
## Output 0.358 µM (active)

## Input Recorded GI50 for O=C1CSC(/C=C/c2ccccc2)N1c1nc2cc3sc(N4C(=O)CSC4/C=C/c4ccccc4)nc3cc2s1 (stereo not given) , please?
## Output > 100 µM (inactive)

## Input Recorded GI50 for `O=C(N/C=C1\C(=O)Oc2ccccc2C1=O)Nc1ccccc1` , please?
## Output 25.8 µM (inactive)

## Input Recorded GI50 for `Cc1ccc([C@H]2CC(=O)C[C@H](c3ccc(C)cc3)C23C(=O)c2ccccc2C3=O)cc1` , please?
## Output 13.6 µM (inactive)

## Input Recorded GI50 for `Cc1c(C(=O)c2ccccc2)[n+]([O-])c2cc(Cl)c(Cl)cc2[n+]1[O-]` , please?
## Output 2.96 µM (inactive)

## Input Recorded GI50 for `O=c1[nH]nc(Cc2ccc([N+](=O)[O-])cc2)n1CCO` , please?
## Output > 100 µM (inactive)

## Input Recorded GI50 for O=C1c2ccccc2C2(c3ccc(Cl)cc3)N[C@@H]3CCCC[C@@H]3N12 (stereo not given in full) , please?
## Output > 100 µM (inactive)

## Input Recorded GI50 for `O=C1[C@@H]2C(c3ccccc3Br)=NO[C@@H]2C(=O)N1c1ccc(Cc2ccc(N3C(=O)[C@H]4C(c5ccccc5Br)=NO[C@H]4C3=O)cc2)cc1` , please?
## Output > 100 µM (inactive)

## Input Recorded GI50 for CCOC(=O)CCC(NC(=O)c1ccc(OCc2ccc3nc(OC)c(OC)nc3c2)cc1)C(=O)OCC (stereo not given) , please?
## Output 40.9 µM (inactive)

## Input Recorded GI50 for `COc1ccc2nc(NC(=O)C(=O)CC(=O)c3ccc([N+](=O)[O-])cc3)sc2c1` , please?
## Output > 100 µM (inactive)

###

- Tested on: COLO 205
- Experiment Summary: NCI tumour cell line growth inhibition, 48 h
The source made the active and inactive calls. Cut-off read from the data, not from the text of the source: active = GI50 up to about 1.1 µM and inactive = higher.
Reported Metric: GI50

Cc1c(CCN2CCOCC2)c(N2CCOCC2)n2c(nc3ccccc32)c1C#N; > 10 µM (inactive)

## Input Recorded GI50 for `COc1cc(C)cc2c1C(=O)C(Br)=CC2=O` , please?
## Output 1.72 µM (inactive)

## Input Recorded GI50 for COc1ccccc1/C=C1\CCC(CCN(C)C)(C2=CCCC2)C1=O (stereo unspecified) , please?
## Output 10.2 µM (inactive)

## Input Recorded GI50 for CCCCCCCC(=O)NC(C)(C)C(=O)NCC(=O)NC(CC(C)C)C(=O)NC(C)(C)C(=O)NCC(=O)NCC(=O)NC(CC(C)C)C(=O)NC(C)(C)C(=O)NCC(=O)NC(C(=O)NC(CO)CC(C)C)C(C)CC (stereo unspecified) , please?
## Output 3.81 µM (inactive)

## Input Recorded GI50 for `Nc1ccccc1C(=O)N/N=C1\C(=O)Nc2ccccc21` , please?
## Output > 100 µM (inactive)

## Input Recorded GI50 for CC1(C(=O)Nc2ccc3cc4ccccc4cc3c2)CC2(C)CC(C)(C1)C(O)NC2=O (stereo unspecified) , please?
## Output 41.6 µM (inactive)

// provenance: ChEMBL document CHEMBL1201862
